target: UniProt Q07817; assay: Time Resolved-Fluorescence Resonance Energy Transfer (TR-FRET) binding assay, competition with probe F-Bak; conditions: in the presence of 1% HS; read-out: Bcl-xL Binding Ki (nM, 1% HS)
Sequence (Q07817 whole entry): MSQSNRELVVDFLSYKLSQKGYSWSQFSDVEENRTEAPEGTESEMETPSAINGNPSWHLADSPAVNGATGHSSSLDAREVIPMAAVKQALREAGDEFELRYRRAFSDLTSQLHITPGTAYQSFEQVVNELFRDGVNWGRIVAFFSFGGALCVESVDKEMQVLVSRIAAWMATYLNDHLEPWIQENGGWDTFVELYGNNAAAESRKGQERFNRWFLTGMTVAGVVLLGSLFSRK
Value Type: Ki (nM)

Q: Reported Ki, compound Cc1c(-c2ccc(-c3ccc4cccc(C(=O)Nc5nc6ccccc6s5)c4c3)nc2C(=O)O)cnn1CC12CC3(C)CC(C)(C1)CC(OCCNCCCO[C@@H]1O[C@H](C(=O)O)[C@@H](O)[C@H](O)[C@H]1O)(C3)C2 : ____
Result: 0.55

Q: Param item: Cc1c(-c2ccc(N3CCc4cccc(C(=O)Nc5nc6ccccc6s5)c4C3)nc2C(=O)O)cnn1CC12CC3(C)CC(C)(C1)CC(OCCNCCS(=O)(=O)O)(C3)C2
Result: 0.16

[I] Cc1c(-c2ccc(N3CCc4cccc(C(=O)Nc5nc6ccccc6s5)c4C3)nc2C(=O)O)cnn1CC12CC3(C)CC(C)(C1)CC(OCCN(CCOCCOCCN)Cc1ccc(CC4O[C@H](C(=O)O)[C@@H](O)[C@H](O)[C@H]4O)cc1)(C3)C2 (some centres unmarked)
[II] Cc1c(-c2ccc(N3CCc4cccc(C(=O)Nc5nc6ccccc6s5)c4C3)nc2C(=O)O)cnn1CC12CC3(C)CC(C)(C1)CC(OCCOCCNCCCP(=O)(O)O)(C3)C2
[III] Cc1c(-c2ccc(N3CCc4cccc(C(=O)Nc5nc6ccccc6s5)c4C3)nc2C(=O)O)cnn1CC12CC3(C)CC(C)(C1)CC(OCCN(CCNCCS(=O)(=O)O)CCS(=O)(=O)O)(C3)C2
Q: Hello, I need these entries ordered by Ki, highest reading first. Thanks! Arrange the labels as the request states and list them.
Result: I, III, II
